Assay: Stability of multivitamin soft capsules in container with channel former and absorbent embedded in the inside walls, 40° C./75% RH
Type: physicochemical
Settings: Multivitamin soft capsule batch 9018802, 6 months
observed_property: amount of active compound present, % of start (%)

{"molecule": "CC(C)(CO)[C@@H](O)C(=O)NCCCO [Dexpanthenol]", "meas_value": 96}
{"molecule": "Cc1ncc(C[n+]2csc(CCO)c2C)c(N)n1.Cl.[Cl-] [Thiamine*HCL]", "meas_value": 98}
{"molecule": "O=C1O[C@H]([C@@H](O)CO)C(O)=C1O [Ascorbic acid]", "meas_value": 99}
{"molecule": "Nc1nc2ncc(CNc3ccc(C(=O)N[C@@H](CCC(=O)O)C(=O)O)cc3)nc2c(=O)[nH]1 [Folic acid]", "meas_value": 87}
